From: patent US8957074B2

# Test system: phosphorylation of pRb at the Ser780 site in JeKo-1 mantle cell lymphoma cells
# protocol.description: CDK4 cellular assay: ELISA of pRb phosphorylation at Ser780 in JeKo-1 cells
# Format: cell-based
# assay.conditions: Homo sapiens, JeKo-1, JeKo-1 cells, p-pRb % inhibition adjusted with total pRb levels; read-out: Normalized cellular ppRb inhibition IC50
# Method: Cell-based assay measuring phosphorylation levels of pRb at the Ser780 site using an enzyme-linked immunosorbent assay (ELISA) method (Table 6). […] Plates were incubated overnight at 4° C. with rocking. […] After incubation, 50 μL 2 M sulfuric acid were added to plates to top the reaction, and absorbance was determined on a SpectraMax (Molecular Devices, Sunnydale, Calif.) within 15 minutes at 450 nm. […]
Would you kindly list IC50 for each of these compounds?

// Input: CN(C)C(=O)c1cc2cnc(Nc3ccc(N4CC5CCC(C4)N5)nn3)nc2n1C1CCCCC1 . Output its IC50 only. 45 to 49 nM

// Input: CN(C)C(=O)c1cc2cnc(Nc3ccc(N4CCN5CCCC5C4=O)cn3)nc2n1C1CCCC1 (centres unmarked) . Output its IC50 only. 369 to 407 nM

// Input: CN(C)C(=O)c1cc2cnc(Nc3ccc(C(=O)N4CC5CCC(C4)N5)nn3)nc2n1C1CCCC1 . Output its IC50 only. 139 to 783 nM

// Input: CN(C)C(=O)c1cc2cnc(Nc3ccc(C(=O)N4C[C@H]5CNC[C@@H](C4)C5O)cn3)nc2n1C1CCCCCC1 (some centres unmarked) . Output its IC50 only. 84 nM

// Input: CN(C)C(=O)c1cc2cnc(Nc3ccc(N4C[C@H]5CC[C@@H](CC4=O)N5)cn3)nc2n1C1CCCC1 . Output its IC50 only. 8 to 99 nM

// Input: CC(CO)N1C2CCC1CN(C(=O)c1ccc(Nc3ncc4cc(C(=O)N(C)C)n(C5CCCC5)c4n3)nc1)C2 (centres unmarked) . Output its IC50 only. 197 nM

// Input: CN(C)C(=O)c1cc2cnc(Nc3ccc(N4CCN5CCC[C@@H]5C4=O)cn3)nc2n1C1CCCC1 . Output its IC50 only. 310 nM

// Input: CN(C)C(=O)c1cc2cnc(Nc3ccc(C(=O)N4CC5CCC(C4)N5)cn3)nc2n1C1C[C@H]2CC[C@@H]1C2 (some centres unmarked) . Output its IC50 only. 216 nM

* * *

# Test system: phosphorylation of pRb at the Ser780 site in JeKo-1 mantle cell lymphoma cells
# protocol.description: CDK4 cellular assay: ELISA of pRb phosphorylation at Ser780 in JeKo-1 cells
# Type: cell-based
# assay.conditions: Homo sapiens, JeKo-1, JeKo-1 cells, p-pRb % inhibition adjusted with total pRb levels; read-out: Normalized cellular ppRb inhibition IC50
pIC50: −log10 of the molar value.
readout.type: pIC50

// Input: CN(C)C(=O)c1cc2cnc(Nc3ccc(N4CC5(CC6CCC(C5)N6)OC4=O)cn3)nc2n1C1CCCCC1 (stereo not shown) [Example 94] . Output its pIC50 only. 6.69 to 7.47

// Input: CN(C)C(=O)c1cc2cnc(Nc3ccc(N4CC5CNCC5C4=O)cn3)nc2n1C1CCCC1 (racemic) [Example 84] . Output its pIC50 only. 7.55 to 8.00

// Input: CN(C)C(=O)c1cc2cnc(Nc3ccc(N4CC5CCC(N5)C4=O)cn3)nc2n1C1CCCCCC1 (stereo not shown) [Example 80] . Output its pIC50 only. 6.32 to 7.13

// Input: CN(C)C(=O)c1cc2cnc(Nc3ccc(C(=O)N4CC5CCC(C4)N5)cn3)nc2n1-c1cccc(C(C)(C)C)c1 [Example 54] . Output its pIC50 only. 7.33 to 8.10
